System: MDA-MB-231
Experiment: cytotoxicity test using WST-8 (number of viable cells)
Format: cell-based
Conditions: Homo sapiens, MDA-MB-231, 48 hours
Observed property: IC50 (nM)
Numeric answer only, unit nM assumed.

Lookup: Answer with reported IC50 of CC(=O)c1c(C)c2cnc(Nc3ccc(N4CCNCC4)cn3)nc2n(C2CCCC2)c1=O
Found: 475

###

System: HCC1500
Assay: cytotoxicity test using WST-8 (number of viable cells)
Type: cell-based
Details: HCC1500, 48 hours
Observed property: IC50
Please state the number and follow it with the unit.

Lookup: Check the records and state IC50 for CC(=O)c1c(C)c2cnc(Nc3ccc(N4CCNCC4)cn3)nc2n(C2CCCC2)c1=O [palbociclib]
Found: 5.36 µM
